B1: HDV Ribozyme (parent)
chain: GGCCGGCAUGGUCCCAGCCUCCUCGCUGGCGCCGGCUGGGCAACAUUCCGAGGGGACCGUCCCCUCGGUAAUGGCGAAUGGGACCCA

Variants of: B1
experimental_protocol: self-cleavage, relative activity (ratio to wild type); higher = more cleavage; co-transcriptional
The threshold is inclusive: self-cleavage of exactly 0.2 counts as Yes; values below receive No.

alteration	class_assignment
C3A A42C	No
C75G G80C	No
C18G G39A	No
U9G C86G	Yes
G54U C62G	Yes
C21G G76A	No
C41U C44A	Yes
G40C C57U	Yes
G67C U69A	Yes
C66G U79C	Yes
C19G C30G	No
C13A G52U	Yes
C21A C63G	No
G5U C22U	No
C4A G67A	No
A43U G52C	Yes
C33A A83C	No
G17C A77C	Yes
G40A A51G	Yes
G52C U69C	Yes
G11U C64G	Yes
A77U A78G	Yes
C30U C85G	No
C64A C66G	Yes
U23G U69C	Yes
G80A A83C	No
U9C A87G	Yes
U9C C66A	Yes
C7A G38C	No
G25C A83U	No
C62G G76A	Yes
U9G U47G	Yes
C14U A45U	Yes
C41G A83G	Yes
G25U G59U	No
U12C G34C	No
U27A G29A	No
A78U C84G	No
G25A A43U	No
C33A C66A	Yes
C33G U60A	No
G2C G81U	No
C19A G25A	No
A56C U79C	Yes
G6U G73C	Yes
G39A A42C	No
